- STUDY_TARGET: recombinant human Mcl-1 (residues 171-327) / Bim interaction (Homo sapiens (Human))
- Sequence (Q07820 171-327): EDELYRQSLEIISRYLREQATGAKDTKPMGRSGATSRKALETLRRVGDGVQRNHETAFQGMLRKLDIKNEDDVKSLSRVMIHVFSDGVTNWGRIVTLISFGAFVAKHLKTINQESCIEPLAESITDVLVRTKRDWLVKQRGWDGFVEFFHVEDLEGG
- ASSAY_DETAILS: biochemical
- Type: binding
- CONDITION_PARAMETERS: TR-FRET, Mcl-1(171-327) / biotin-Bim (51-76); read-out: Mcl-1 HTRF IC50
MEASURE_NAME: IC50 (nM)
Give just the numeric value; nM need not be written.

Sample records with IC50:
Enquiry: Return IC50 (reported value) for this molecule: CO[C@@]1(c2cnccc2F)/C=C/C[C@H](C)[C@@H](C)S(=O)(=O)NC(=O)c2ccc3c(c2)N(C[C@@H]2CC[C@H]21)C[C@@]1(CCCc2cc(Cl)ccc21)CO3 (single isomer, unassigned) [Example 100538]
Return: 1.47

Enquiry: Return IC50 (reported value) for this molecule: C[C@@H]1[C@@H](C)C/C=C/[C@](O)(C2CC2)[C@@H]2CC[C@H]2CN2C[C@@]3(CCCc4cc(Cl)ccc43)COc3ccc(cc32)C(=O)NS1(=O)=O [Example 100213]
Return: 2.84

---
Enquiry: Return IC50 (reported value) for this molecule: CO[C@@]1(Cc2ncco2)/C=C/C[C@H](C)[C@@H](C)S(=O)(=O)NC(=O)c2ccc3c(c2)N(C[C@@H]2CC[C@H]21)C[C@@]1(CCCc2cc(Cl)ccc21)CO3 [Example 100508]
Return: 2.73

Enquiry: Return IC50 (reported value) for this molecule: C[C@@H]1[C@@H](C)C/C=C/[C@](O)(CC(=O)N2CCC2)[C@@H]2CC[C@H]2CN2C[C@@]3(CCCc4cc(Cl)ccc43)COc3ccc(cc32)C(=O)NS1(=O)=O [Example 100292]
Return: 0.115

Enquiry: Return IC50 (reported value) for this molecule: CO[C@@]1(C)/C=C/C[C@H](C)[C@@H](CCOS(C)(=O)=O)S(=O)(=O)NC(=O)c2ccc3c(c2)N(C[C@@H]2CC[C@H]21)C[C@@]1(CCCc2cc(Cl)ccc21)CO3 (single isomer, unassigned) [Example 100598]
Return: 0.077

Enquiry: Return IC50 (reported value) for this molecule: C[C@@H]1[C@@H](C)CCC[C@](C)([C@H]2OC[C@@H](N(C)C)CO2)[C@@H]2CC[C@H]2CN2C[C@@]3(CCCc4cc(Cl)ccc43)COc3ccc(cc32)C(=O)NS1(=O)=O [Example 100328]
Return: 0.261

Enquiry: Return IC50 (reported value) for this molecule: Cc1ccnc(C[C@@]2(O)/C=C/C[C@H](C)[C@@H](C)S(=O)(=O)NC(=O)c3ccc4c(c3)N(C[C@@H]3CC[C@H]32)C[C@@]2(CCCc3cc(Cl)ccc32)CO4)c1 [Example 100532]
Return: 0.053

Enquiry: Return IC50 (reported value) for this molecule: C[C@@H]1[C@@H](C)C/C=C/[C@](C)(OCC2CCOCC2)[C@@H]2CC[C@H]2CN2C[C@@]3(CCCc4cc(Cl)ccc43)COc3ccc(cc32)C(=O)NS1(=O)=O [Example 100477]
Return: 0.313

Enquiry: Return IC50 (reported value) for this molecule: COCCC[C@]1(O)/C=C/C[C@H](C)[C@@H](C)S(=O)(=O)NC(=O)c2ccc3c(c2)N(C[C@@H]2CC[C@H]21)C[C@@]1(CCCc2cc(Cl)ccc21)CO3 [Example 100160]
Return: 0.169

Enquiry: Return IC50 (reported value) for this molecule: C[C@@H]1[C@@H](C)C/C=C/[C@@](C)(OCCN2CCOCC2)[C@@H]2CC[C@H]2CN2C[C@@]3(CCCc4cc(Cl)ccc43)COc3ccc(cc32)C(=O)NS1(=O)=O [Example 100467]
Return: 0.303
